Origin of the recorded values: PubChem BioAssay

# experiment_description: small-molecule microarray binders of probe aNog, primary screen, biochemical, biotinylated probe, 635/667 nm fluorescence (AID 1115);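 note: probe is biotinylated aNog protein used at 0.15 µg/mL for 1 h at 4 C; z-score combines 667 nm fluorescence of each spot with its signal to noise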
# condition_description: higher = more signal
Lab note: compare composite z-score against 0.9. Equal or greater, write 1.0. Smaller, write 0.0.

molecule | group_label
C=C(C)[C@@H]1CC=C(C(O)C2C=CC3C(=O)N(c4ccccc4)C(=O)C3N2Nc2ccccc2)CC1 (some centres undefined) | 1.0
COc1ccc(CCNC(=O)[C@@H]2c3ccccc3C(=O)N(Cc3ccccc3Cl)[C@H]2c2ccc(CO)cc2)cc1 | 0.0
CC(C)NC(=O)[C@@]1(C)c2ccccc2C(=O)N(Cc2cc(C(F)(F)F)cc(C(F)(F)F)c2)[C@H]1c1ccc(CO)cc1 | 1.0
Oc1ccc2cc[n+](Cc3sc4ccccc4c3Cl)cc2c1 | 0.0
C=CC[C@@]12N=C(c3ccc(OCCCO)cc3)O[C@@H]1c1ccccc1N(C)C2=O | 0.0
[N-]=[N+]=Nc1ccccc1[C@H]1OC(c2ccc(OCCCO)cc2)=N[C@@]1(CCS(=O)(=O)c1ccccc1)C(N)=O | 0.0
C=CCC(OC(C)=O)[C@@H]1[C@@H](N(Cc2ccc(-c3cccc(C(F)(F)F)c3)o2)C(=O)c2ccc(C)cc2)c2cc(OCCCO)ccc2N1C(=O)Cc1ccc2ccccc2c1 (some centres undefined) | 0.0
Cc1ccc(S[C@]2(C(=O)NC3CC3)CC(=O)N(Cc3ccccc3)[C@@H]2c2ccc(CO)cc2I)cc1 | 0.0
C=CCC(OC(C)=O)[C@@H]1[C@@H](N(Cc2cc3ccccc3o2)C(=O)c2cccc3ccccc23)c2cc(OCCCO)ccc2N1C(=O)c1ccc(-c2ccccc2)cc1 (some centres undefined) | 0.0
COc1ccc(C#Cc2ccc3c(c2)[C@]2(C(=O)N3)[C@H](c3ccccc3OCCO)N3[C@H](c4ccccc4)[C@H](c4ccccc4)OC(=O)[C@H]3[C@@H]2C(=O)Nc2nc3ccccc3s2)cc1 | 1.0
CCCCCCc1nc(-c2ccc(OC)nc2)cc2c1[Si](C(C)C)(C(C)C)O[C@H]2c1ccccc1 | 0.0
[N-]=[N+]=NCc1ccccc1[C@@H]1OC(c2ccc(OCCCO)cc2)=N[C@]1(Cc1ccccc1)C(N)=O | 1.0
COCCOC(=O)N1C(=O)[C@@]2(c3cc(C#CC4(O)CCCCCC4)ccc31)[C@H](c1ccc(OCCO)cc1)N1[C@H](c3ccccc3)[C@H](c3ccccc3)OC(=O)[C@H]1[C@@H]2C(=O)N1CCN(c2ncccn2)CC1 | 0.0

====

# experiment_description: PSAC antagonists in infected red cells, primary screen, cell-based, P. falciparum Indochina, OD700, 1 h (AID 1154)
# condition_description: P. falciparum Indochina infected RBC osmotic lysis, higher = more signal, called active from +8 up or from −8 down
Lab note: compare z-score against 2. Equal or greater, write true (1). Smaller, write false (0).

structure_smiles_string | group_label
C=C(COC)/C(=C/C[C@@H](OC(C)=O)c1ccc(OCCO)cc1)c1cnc2ccccc2c1 | true (1)
C=C(CCCC)/C(=C/C[C@@H](OC(C)=O)c1ccc(OCCO)cc1)c1cnc2ccccc2c1 | true (1)
CCCC#C[Si](O[C@H](CC)c1cn(Cc2cccc(Cl)c2)nn1)(C(C)C)C(C)C | false (0)
COc1ccc(CCNC(=O)[C@@]2(Sc3ccc(C)cc3)CC(=O)N(C(C)C)[C@@H]2c2ccc(CO)cc2I)cc1 | true (1)
[N-]=[N+]=Nc1ccccc1[C@H]1OC(c2ccc(OCCCO)cc2)=N[C@@]1(CCS(=O)(=O)c1ccccc1)C(N)=O | true (1)
CN(C)CCCCCCNC(=O)[C@@H]1C[C@@H]2C(=O)N[C@@H](Cc3ccccc3)C(=O)N2[C@@H]1c1ccc(O)cc1 | false (0)
Cc1ccc(S[C@]2(C(=O)O)CC(=O)N(C(C)C)[C@@H]2c2ccc(CO)cc2I)cc1 | true (1)
COCCOC(=O)N1C(=O)[C@@]2(c3cc(C#CCC(C(=O)OC)C(=O)OC)ccc31)[C@H](C(=O)Nc1nc3ccccc3s1)[C@H]1C(=O)O[C@H](c3ccccc3)[C@H](c3ccccc3)N1[C@@H]2c1ccccc1OCCO | true (1)
CC(C)[Si]1(C(C)C)O[C@@H](c2ccccc2)c2cc(-c3ccc(-c4ccc(Cl)c(Cl)c4)o3)nc(-c3ccccc3)c21 | false (0)
O=C1[C@@]23C=C(Br)[C@H](C[C@@H]2CCOC3)[C@@]12CO2 | false (0)
CCC[C@@H]1C[C@@]1(CCC)[C@@H](NS(=O)(=O)c1cccc2cccnc12)c1ccc(Cl)cc1 | false (0)
C=C(C(=O)CC[C@@H](OC(=O)c1cccnc1)c1ccccc1OCCO)C(C)C | true (1)
O=C1O[C@@H](c2ccccc2)[C@@H](c2ccccc2)N2[C@@H](c3ccccc3OCCO)[C@]3(C(=O)Nc4ccc(C#CC5=CCCCC5)cc43)[C@@H](C(=O)N3CCCCCCC3)[C@H]12 | false (0)
CCCCCCc1nc(-c2cc(C)c(OC)c(C)c2)cc2c1[Si](C(C)C)(C(C)C)OC2 | false (0)
CCOC(=O)C[C@H]1[C@H](OC(=O)c2ccc(-c3ccccc3)cc2)[C@@H](NC(=O)Cc2ccc(OC)cc2)c2cc(OCCCO)ccc2N1C(=O)c1ccccc1 | false (0)
